# assayed.system: T1, human adenosine A2A receptor (A2aR) (human, UniProt P29274 1-412)
# T1 construct: Assays used HEK293 cells stably overexpressing human A2aR (BPS Bioscience 79381), human A2aR-expressing CHO cells, or endogenous A2aR on human PBMC; also called human A2aR; hA2aR
# T1 sequence (P29274 whole entry): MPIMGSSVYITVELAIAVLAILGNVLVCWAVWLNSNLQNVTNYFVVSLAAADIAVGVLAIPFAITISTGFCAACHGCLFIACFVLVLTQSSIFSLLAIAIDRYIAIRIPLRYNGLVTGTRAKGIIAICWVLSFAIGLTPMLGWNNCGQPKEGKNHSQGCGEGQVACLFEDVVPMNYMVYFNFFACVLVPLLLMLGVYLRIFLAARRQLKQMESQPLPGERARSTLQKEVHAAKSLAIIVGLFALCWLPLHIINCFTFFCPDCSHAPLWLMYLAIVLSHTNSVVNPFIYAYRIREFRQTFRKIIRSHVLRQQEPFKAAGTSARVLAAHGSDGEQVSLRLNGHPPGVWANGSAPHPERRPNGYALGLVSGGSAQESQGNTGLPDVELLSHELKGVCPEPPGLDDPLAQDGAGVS
# assay.protocol: flow cytometry, HEK293-hA2aR cells, supernatant 1 ug/ml
assay.metric: MFI (MFI)
Write down the numeric answer in MFI and omit the unit.

Ask | So what does the record say about MFI for Hu3F6-H1/Hu3F6-L8 (antibody, human IgG1, V domains shown, Human IgG1 FES (L234F, L235E, P331S) and human Ig kappa constant domains) VH: QVQLVQSGAEVKKPGASVKVSCKASGFAFTSYWMNWVRQAPGQGLEWMGRIDPSDSEAHYHHKFWGRVTMTRDTSTSTVYMELSSLRSEDTAVYYCLRSLYGKGDYWGHGTTVTVSS VL: DVVMTQSPLSLPVTPGEPASISCRSSQSLVHRNGNTYLEWYLQKPGQSPQLLIYKVSNRFSGVPDRFSGSGSGTDFTLKISRVEAEDVGVYYCYQGSHVPLTFGGGTKVEIK ?
Reply | 1420

Ask | # iterate: Hu3F6-H5/Hu3F6-L7 (antibody, human IgG1, V domains shown, Human IgG1 FES (L234F, L235E, P331S) and human Ig kappa constant domains) VH: EVQLVQSGAEVKKPGASVKVSCKTSGFAFTSYWMNWVRQAPGQGLEWIGRIDPSDSEAHYAHKFWGRATLTVDKSSSTVYMELSSLRSEDTAVYYCLRSLYGKGDYWGHGTTVTVSS VL: DVVMTQTPPSLPVNPGEPASISCRSSQSLVHRNGNTYLEWYLQKPGQSPQLLIYKVSNRFSGVPDRFSGSGSGSDFTLKISWVEAEDVGVYYCYQGSHVPLTFGGGTKVEIK
Reply | 1890

Ask | Would you mind doing Hu3F6-H3/Hu3F6-L4 (antibody, human IgG1, V domains shown, Human IgG1 FES (L234F, L235E, P331S) and human Ig kappa constant domains; also called Hu3F6 VH3/VL4) VH: EVQLVQSGAEVKKPGASVKVSCKTSGFAFTSYWMNWVRQAPGQGLEWIGRIDPSDSEAHYHHKFWGRATLTVDTSSSTVYMELSSLRSEDTAVYYCLRSLYGKGDYWGHGTTVTVSS VL: DIVMTQTPLSLSVTPGQPASISCRSSQSLVHRNGNTYLEWYLQKPGQSPQLLIYKVSNRFSGVPDRFSGSGSGTDFTLKISRVEAEDVGVYYCYQGSHVPLTFGGGTKVEIK as well?
Reply | 1840

Ask | Similarly, Hu3F6-H3/Hu3F6-L3 (antibody, human IgG1, V domains shown, Human IgG1 FES (L234F, L235E, P331S) and human Ig kappa constant domains; also called Hu3F6 VH3/VL3) VH: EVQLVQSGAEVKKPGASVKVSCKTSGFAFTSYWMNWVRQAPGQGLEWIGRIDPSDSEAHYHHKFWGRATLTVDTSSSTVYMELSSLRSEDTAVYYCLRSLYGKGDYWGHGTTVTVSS VL: DVVMTQSPLSLPVTLGQPASISCRSSQSLVHRNGNTYLEWYQQRPGQSPRLLIYKVSNRFSGVPDRFSGSGSGTDFTLKISRVEAEDVGVYYCYQGSHVPLTFGGGTKVEIK ?
Reply | 1930
